Below: a set of entries, each annotated with reported pIC50.
Study Target: Bromodomain-containing protein 4 (Homo sapiens, UniProt O60885, Y97A)
Protocol Details: Inhibition of 6His-Thr-BRD4 (1 to 477 residues) BD1 Y97A mutant (unknown origin) incubated for 30 mins by TR-FRET assay
Please express pIC50 as -log10 of the molar concentration.

The cases that follow already have their pIC50 on record.
Smiles Repr: CCNC(=O)c1ccc(OCc2cccc(OC)c2)c(-c2cn(C)nn2)c1
pIC50: 4.70
--
Smiles Repr: CCNC(=O)c1cc(Cc2cccc(F)c2)nc(-c2cn(C)nn2)c1
pIC50: 4.80

// pIC50 value for CCNC(=O)c1ccc(OCc2ccc(OC)cc2)c(-c2cn(C)nn2)c1 : 4.70
